Target: GDP-bound KRAS protein (aa 1-169), containing both G12D and C118A amino acid substitutions (Homo sapiens, UniProt P01116, C118A/G12D)
Sequence (P01116 1-169 isoform P01116-2 G12D/C118A): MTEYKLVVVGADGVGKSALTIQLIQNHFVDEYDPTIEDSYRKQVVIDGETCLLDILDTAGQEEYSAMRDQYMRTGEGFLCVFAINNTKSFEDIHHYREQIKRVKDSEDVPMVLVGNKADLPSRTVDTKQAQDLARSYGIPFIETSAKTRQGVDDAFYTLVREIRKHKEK
Assay: KRAS G12D Coupled Nucleotide Exchange Assay
Type: biochemical
# IC50 listing for each entry below

| compound | IC50 [nM] |
| --- | --- |
| C[C@@H]1CC1c1c(Cl)cc2[nH]ncc2c1-c1c(F)cc2c(N3CCOCC(O)(CF)C3)nc(OC[C@@]34CCCN3C[C@H](F)C4)nc2c1F (single isomer, unassigned) [Example 99] | 5 |
| CCc1c(F)ccc2cc(O)cc(-c3c(F)cc4c(N5CCOCC(C)(O)C5)nc(OC[C@@]56CCCN5C[C@H](F)C6)nc4c3F)c12 (single isomer, unassigned) [Example 34] | 2 |
| CCC1CCCc2cc(O)cc(-c3ccc4c(N5CCC[C@@](C)(O)C5)nc(OC[C@@]56CCCN5C[C@H](F)C6)nc4c3F)c21 (stereo partly drawn) [Example 95] | 9 |
| C#Cc1c(F)ccc2cc(O)cc(-c3ccc4c(N5CC6CC(O)C(C6)C5)nc(OC[C@@]56CCCN5C[C@H](F)C6)nc4c3F)c12 (single isomer, unassigned) [Example 17] | 9 |
| Oc1cc(-c2c(F)cc3c(N4CCCOCC4)nc(OC[C@@]45CCCN4C[C@H](F)C5)nc3c2F)c2ccccc2c1 [Example 10] | 15 |
| C[C@@]1(O)CCCN(c2nc(OC[C@@]34CCCN3C[C@H](F)C4)nc3c(F)c(-c4cc(O)cc(Cl)c4C4CC4)c(F)cc23)C1 [Example 6] | 4 |

----------
Some compounds, each annotated with its measured pIC50.
Target: His-tagged KRAS G12D protein (Homo sapiens, UniProt P01116, G12D)
Sequence (P01116 1-188 isoform P01116-2 G12D): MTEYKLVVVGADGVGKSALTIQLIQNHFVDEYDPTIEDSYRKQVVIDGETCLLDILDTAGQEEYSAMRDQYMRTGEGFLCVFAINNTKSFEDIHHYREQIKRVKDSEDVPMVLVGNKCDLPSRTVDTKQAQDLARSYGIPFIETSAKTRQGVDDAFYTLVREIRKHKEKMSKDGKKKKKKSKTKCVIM
Experiment: KRAS G12D TR-FRET Assay
pIC50: −log10 of the molar value.

| compound | pIC50 |
| --- | --- |
| C[C@@H]1C[C@@H]1c1c(Cl)cc2[nH]ncc2c1-c1ccc2c(N3CCC[C@@](C)(O)C3)nc(OC[C@@]34CCCN3C[C@H](F)C4)nc2c1F (atropisomer, axis not shown; (aS)) | 8.05 |
| CCc1c(F)ccc2cc(O)cc(-c3c(N)cc4c(N5CCCOCC5)nc(OC[C@@]56CCCN5C[C@H](F)C6)nc4c3F)c12 | 7.10 |
| CCc1c(F)ccc2cc(N)cc(-c3c(F)cc4c(N5CCOCC(C)(O)C5)nc(OC[C@@]56CCCN5C[C@H](F)C6)nc4c3F)c12 (single isomer, unassigned) [Example 72] | 8.10 |

----------
Target: GDP-bound KRAS protein (aa 1-169), containing both G12D and C118A amino acid substitutions (Homo sapiens, UniProt P01116, C118A/G12D)
Test: KRAS G12D Coupled Nucleotide Exchange Assay
Assay type: biochemical

| molecule | readoutUnit | IC50 |
| --- | --- | --- |
| C#Cc1cccc2cc(O)cc(-c3c(F)cc4c(N5CCC[C@@](C)(O)C5)nc(OC[C@@]56CCCN5C[C@H](F)C6)nc4c3F)c12 (single isomer, unassigned) [Example 11] | nM | 186 |
| C/C=C\c1c(Cl)cc2[nH]ncc2c1-c1c(F)cc2c(N3CCC[C@@](C)(O)C3)nc(OC[C@@]34CCCN3C[C@H](F)C4)nc2c1F (single isomer, unassigned) [Example 120] | nM | 3 |
| CCc1c(F)ccc2cc(O)cc(-c3c(F)cc4c(N5CCC[C@@](C)(O)C5)nc(OC[C@@]56CCCN5C[C@H](F)C6)nc4c3F)c12 (atropisomer, axis not shown) [Example 3] | nM | 134 |
